- MEASUREMENT_NOTES: refractive index (Na D-line) (dimensionless)
- CONDITION_SET: 298.15 K; 101.33 kPa; Liquid; Standard Abbe refractometry
OBSERVABLE: refractive index
Reply with the value as a number alone.

Some molecules with recorded refractive index:
# MOLECULE, refractive index
data = [
    ("CCCCn1cc[n+](C)c1.O=S(=O)([O-])C(F)(F)F [1-butyl-3-methylimidazolium trifluoromethanesulfonate]", 1.43895),
    ("CCCCCCC [heptane]", 1.38529),
    ("C1CCCCC1 [cyclohexane]", 1.42356),
    ("CCCCCC[n+]1ccn(C)c1.O=S(=O)([N-]S(=O)(=O)C(F)(F)F)C(F)(F)F", 1.43016),
]

Attention now turns to another entry.
Ask | Requested read-out: refractive index. Entry: Cc1ccccc1 [toluene]
Reply | 1.49398
